Source: the NIST ThermoML archive (doi:10.1021/je700297c)

Assay: activity coefficient (dimensionless); of the first substance listed, at infinite dilution; xn = mol fraction of the nth substance listed
Details: 323 K; Liquid; Chromatography; x1 = 0
activity coefficient: recorded values
Form field (numeric): enter value without unit.

Sample records with activity coefficient:
>  <compound>
CCCCCCCC [octane] + CCCCCCCCCCCCCCCCCC(=O)[O-].CCCCn1cc[n+](C)c1

>  <measured_value>
2.1

$$$$
>  <compound>
c1ccccc1 [benzene] + CCCCCCCCCCCCCCCCCC(=O)[O-].CCCCn1cc[n+](C)c1

>  <measured_value>
0.7

$$$$

Kindly review the next compound as well.
Inquiry: What does the data say about its activity coefficient? Entry: CC1CCCCC1 [methylcyclohexane] + CCCCn1cc[n+](C)c1.F[B-](F)(F)F
Reply text: 35.5

----------
Assay: activity coefficient (dimensionless); of the first substance listed, at infinite dilution; xn = mol fraction of the nth substance listed
Details: 323 K; Liquid; Chromatography; x1 = 0
activity coefficient: recorded values
Form field (numeric): enter value without unit.

Sample records with activity coefficient:
>  <molecule>
CCO [ethanol] + C[n+]1ccn(CCCC#N)c1.N#CN=C=[N-]

>  <activity coefficient>
0.4

$$$$
>  <molecule>
CCCCCC [hexane] + CCCCCCCCCCCCCCCCCC(=O)[O-].CCCCn1cc[n+](C)c1

>  <activity coefficient>
1.7

$$$$
>  <molecule>
C1CCOC1 [tetrahydrofuran] + C[n+]1ccn(CCCC#N)c1.O=S(=O)([N-]S(=O)(=O)C(F)(F)F)C(F)(F)F

>  <activity coefficient>
1.2

$$$$
>  <molecule>
C1CCOC1 [tetrahydrofuran] + CCCC[n+]1ccn(C)c1.O=S(=O)([N-]S(=O)(=O)C(F)(F)F)C(F)(F)F

>  <activity coefficient>
0.4

$$$$

Inquiry: What does the data say about its activity coefficient? Entry: CC1CCCCC1 [methylcyclohexane] + C[n+]1ccn(CCCC#N)c1.N#CN=C=[N-]
Reply text: 84.9

Inquiry: Next entry: CCCCCCCC [octane] + CCCCn1cc[n+](C)c1.F[B-](F)(F)F
Reply text: 95.5

Inquiry: Next entry: CCCCCC [hexane] + C[n+]1ccn(CCCC#N)c1.N#CN=C=[N-]
Reply text: 145

Inquiry: Next entry: CCCCCCC [heptane] + C[n+]1ccn(CCCC#N)c1.N#CN=C=[N-]
Reply text: 197

Inquiry: Next entry: CO [methanol] + C[n+]1ccn(CCCC#N)c1.O=S(=O)([N-]S(=O)(=O)C(F)(F)F)C(F)(F)F
Reply text: 1
